# Tested on: Candida albicans
# procedureDetails: Antifungal activity against Candida albicans ATCC 90028 assessed as zone of inhibition at 100 ug/disc after 48 hrs by agar disc diffusion method
# Format: functional
# protocolConditions: ATCC 90028, 48 h, read-out: DIZ
quantityKind: zone of inhibition at 100 µg/disc (mm)
Just the number in mm, nothing appended.

Looking for the measured zone of inhibition at 100 µg/disc of COc1ccc(C(=O)C[C@@H](c2ccc(Cl)cc2)[C@@H]2CCCc3[se]nnc32)cc1 , can you help?
15

// repeat for O=C(C[C@@H](c1ccccc1)[C@@H]1CCCc2[se]nnc21)c1ccccc1 and report
15

// repeat for Cc1ccc([C@H](c2[se]nnc2-c2ccccc2)[C@@H]2CCCc3[se]nnc32)cc1 and report
10

// repeat for Clc1ccc(-c2nn[se]c2[C@@H](c2ccc(Cl)cc2)[C@@H]2CCCc3[se]nnc32)cc1 and report
15

###

# Tested on: Candida albicans
# procedureDetails: Antifungal activity against Candida albicans ATCC 90028 assessed as zone of inhibition at 100 ug/disc after 48 hrs by agar disc diffusion method
# Assay type: functional
# protocolConditions: ATCC 90028, 48 h, read-out: DIZ
quantityKind: zone of inhibition at 100 µg/disc (mm)
Just the number in mm, nothing appended.

Looking for the measured zone of inhibition at 100 µg/disc of Cc1ccc(C(=O)C[C@@H](c2ccc(Cl)cc2)[C@@H]2CCCc3[se]nnc32)cc1 , can you help?
17

// repeat for COc1ccc(C(=O)C[C@@H](c2ccccc2)[C@@H]2CCCc3[se]nnc32)cc1 and report
15

// repeat for Cc1ccc(C(=O)C[C@@H](c2ccccc2)[C@@H]2CCCc3[se]nnc32)cc1 and report
12

// repeat for Clc1ccc([C@H](c2[se]nnc2-c2ccccc2)[C@@H]2CCCc3[se]nnc32)cc1 and report
10

// repeat for COc1ccc([C@H](CC(=O)c2ccccc2)[C@@H]2CCCc3[se]nnc32)cc1 and report
12

###

Kindly supply the reported zone of inhibition at 100 µg/disc values for the records listed here.
# System: Candida albicans
# procedureDetails: Antifungal activity against Candida albicans ATCC 90028 assessed as zone of inhibition at 100 ug/disc after 48 hrs by agar disc diffusion method
# Format: functional
# protocolConditions: ATCC 90028, 48 h, read-out: DIZ
Just the number in mm, nothing appended.

Looking for the measured zone of inhibition at 100 µg/disc of c1ccc(-c2nn[se]c2[C@@H](c2ccccc2)[C@@H]2CCCc3[se]nnc32)cc1 , can you help?
15

// repeat for COc1ccc(-c2nn[se]c2[C@@H](c2ccccc2)[C@@H]2CCCc3[se]nnc32)cc1 and report
12

// repeat for Cc1ccc(-c2nn[se]c2[C@@H](c2ccc(Cl)cc2)[C@@H]2CCCc3[se]nnc32)cc1 and report
15

// repeat for c1ccc([C@H](c2[se]nnc2-c2ccc3ccccc3c2)[C@@H]2CCCc3[se]nnc32)cc1 and report
10

// repeat for COc1ccc(-c2nn[se]c2[C@@H](c2ccc(Cl)cc2)[C@@H]2CCCc3[se]nnc32)cc1 and report
15

// repeat for O=C(C[C@@H](c1ccccc1)[C@@H]1CCCc2[se]nnc21)c1ccc(Cl)cc1 and report
15

// repeat for O=C(C[C@@H](c1ccc(Cl)cc1)[C@@H]1CCCc2[se]nnc21)c1ccc(Cl)cc1 and report
15

// repeat for Cc1ccc([C@H](CC(=O)c2ccccc2)[C@@H]2CCCc3[se]nnc32)cc1 and report
13

// repeat for Cc1ccc(-c2nn[se]c2[C@@H](c2ccccc2)[C@@H]2CCCc3[se]nnc32)cc1 and report
10
